The measurements presented in this section are drawn from patent US20250214978A1.

experimental details: Free plasma protein binding (PPB) assay, equilibrium dialysis
Assay type: in vitro ADME
details: pH 7.4, Human plasma, dialysis 6 hours at 37° C., read-out: fu % Human
parameter measured: fraction unbound at 6 h, 1 μM
Please give only the number in your answer, with no unit.

compound	parameter measured	value observed
COC(=O)NS(=O)(=O)c1sc(CC(C)C)cc1-c1ccc(Cn2ccnc2C)cc1C [Compound I-11]	fraction unbound at 6 h, 1 μM	0.0039

Fill blank: measured fraction unbound at 6 h, 1 μM of the compound CCCCOC(=O)NS(=O)(=O)c1sc(CC(C)C)cc1-c1ccc(Cn2ccnc2)cc1 [Control Compound I, reference compound] is ____. 0.0006

Any idea what fraction unbound at 6 h, 1 μM was measured for COC(=O)NS(=O)(=O)c1sc(CC(C)C)c(C)c1-c1ccc(Cn2ccnc2C)cc1 [Compound I-16] ? 0.0126

Form field: reported fraction unbound at 6 h, 1 μM of COC(=O)NS(=O)(=O)c1sc(CC(C)C)c(C)c1-c1ccc(Cn2ccnc2Cl)cc1 [Compound I-34] 0.008

###

target desc: CYP3A4 (Homo sapiens (Human))
Sequence (P08684 whole entry): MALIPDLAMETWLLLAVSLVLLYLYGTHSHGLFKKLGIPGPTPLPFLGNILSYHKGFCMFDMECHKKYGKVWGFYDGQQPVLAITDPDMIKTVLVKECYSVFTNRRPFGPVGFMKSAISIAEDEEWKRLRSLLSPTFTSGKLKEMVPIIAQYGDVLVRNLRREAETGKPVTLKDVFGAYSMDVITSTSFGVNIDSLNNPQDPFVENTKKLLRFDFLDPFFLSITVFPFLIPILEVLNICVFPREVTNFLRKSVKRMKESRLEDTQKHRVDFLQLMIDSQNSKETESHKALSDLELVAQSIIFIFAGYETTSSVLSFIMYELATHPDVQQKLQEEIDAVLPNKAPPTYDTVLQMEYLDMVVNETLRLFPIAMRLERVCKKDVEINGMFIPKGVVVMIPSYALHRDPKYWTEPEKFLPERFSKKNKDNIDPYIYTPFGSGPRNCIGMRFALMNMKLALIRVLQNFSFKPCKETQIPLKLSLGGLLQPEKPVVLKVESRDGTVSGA
experimental details: CYP inhibition assay in mixed human liver microsomes
Type: in vitro ADME
details: mixed (pooled) human liver microsomes, probe midazolam, read-out: Inhibition rate % CYP3A4 (midazolam)
We use 7% as the dividing line for inhibition at 10 µM: on or above the line is yes (1), below is no (0).

# count of solved cases: 5
query smiles	target desc	answer label
CCc1nccn1Cc1ccc(-c2cc(CC(C)C)sc2S(=O)(=O)NC(=O)OC)cc1C#N	CYP3A4 (Homo sapiens (Human))	no (0)
CCCCOC(=O)NS(=O)(=O)c1sc(CC(C)C)cc1-c1ccc(Cn2ccnc2C)c(C#N)c1	CYP3A4 (Homo sapiens (Human))	yes (1)
COC(=O)NS(=O)(=O)c1sc(CC(C)C)cc1-c1ccc(Cn2ccnc2C(C)(C)C)c(C#N)c1	CYP3A4 (Homo sapiens (Human))	no (0)
COC(=O)NS(=O)(=O)c1sc(CC(C)C)cc1-c1ccc(Cn2ccnc2C)cc1C	CYP3A4 (Homo sapiens (Human))	yes (1)
COC(=O)NS(=O)(=O)c1sc(CC(C)C)c(C)c1-c1ccc(Cn2ccnc2Cl)cc1	CYP3A4 (Homo sapiens (Human))	no (0)

Please find the next molecule below.
Evaluate COC(=O)NS(=O)(=O)c1sc(CC(C)C)c(C)c1-c1ccc(Cn2ccnc2C)cc1 : inhibition at 10 µM at minimum 7%? no (0)

###

experimental details: Liver microsome stability assay
Format: in vitro ADME
details: Rat liver microsomes; read-out: T1/2 (min) Rat
parameter measured: half-life at 1 μM (min)
Value expressed in min; do not type the unit.

compound	half-life at 1 μM [min]
CCCCOC(=O)NS(=O)(=O)c1sc(CC(C)C)cc1-c1ccc(Cn2ccnc2)cc1 [Control Compound I, reference compound]	22.6

Please give the measured half-life at 1 μM for this compound: COC(=O)NS(=O)(=O)c1sc(CC(C)C)c(C)c1-c1ccc(Cn2ccnc2C)cc1 83.5

###

target desc: CYP1A2 (Homo sapiens (Human))
Sequence (P05177 whole entry): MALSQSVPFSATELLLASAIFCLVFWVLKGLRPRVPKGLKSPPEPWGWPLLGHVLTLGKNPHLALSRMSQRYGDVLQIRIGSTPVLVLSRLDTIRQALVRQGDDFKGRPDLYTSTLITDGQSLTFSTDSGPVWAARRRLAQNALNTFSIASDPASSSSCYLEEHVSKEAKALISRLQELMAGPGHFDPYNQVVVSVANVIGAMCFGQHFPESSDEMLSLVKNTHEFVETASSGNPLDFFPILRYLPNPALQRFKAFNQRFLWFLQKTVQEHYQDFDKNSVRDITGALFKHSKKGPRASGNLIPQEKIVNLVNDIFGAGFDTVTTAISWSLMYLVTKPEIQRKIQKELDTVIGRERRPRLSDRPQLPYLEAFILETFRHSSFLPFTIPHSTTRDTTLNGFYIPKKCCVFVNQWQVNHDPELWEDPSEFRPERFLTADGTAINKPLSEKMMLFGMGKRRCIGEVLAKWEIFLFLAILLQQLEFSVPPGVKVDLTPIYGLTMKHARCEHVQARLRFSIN
experimental details: CYP inhibition assay in mixed human liver microsomes
Format: in vitro ADME
parameter measured: inhibition at 10 µM
Give the value; after it, write the unit.

Tell me the measured inhibition at 10 µM of COC(=O)NS(=O)(=O)c1sc(CC(C)C)cc1-c1ccc(Cn2ccnc2C)cc1C , please. 0%
